Target: Glucocorticoid receptor (Homo sapiens, UniProt P04150)
Sequence (P04150 whole entry): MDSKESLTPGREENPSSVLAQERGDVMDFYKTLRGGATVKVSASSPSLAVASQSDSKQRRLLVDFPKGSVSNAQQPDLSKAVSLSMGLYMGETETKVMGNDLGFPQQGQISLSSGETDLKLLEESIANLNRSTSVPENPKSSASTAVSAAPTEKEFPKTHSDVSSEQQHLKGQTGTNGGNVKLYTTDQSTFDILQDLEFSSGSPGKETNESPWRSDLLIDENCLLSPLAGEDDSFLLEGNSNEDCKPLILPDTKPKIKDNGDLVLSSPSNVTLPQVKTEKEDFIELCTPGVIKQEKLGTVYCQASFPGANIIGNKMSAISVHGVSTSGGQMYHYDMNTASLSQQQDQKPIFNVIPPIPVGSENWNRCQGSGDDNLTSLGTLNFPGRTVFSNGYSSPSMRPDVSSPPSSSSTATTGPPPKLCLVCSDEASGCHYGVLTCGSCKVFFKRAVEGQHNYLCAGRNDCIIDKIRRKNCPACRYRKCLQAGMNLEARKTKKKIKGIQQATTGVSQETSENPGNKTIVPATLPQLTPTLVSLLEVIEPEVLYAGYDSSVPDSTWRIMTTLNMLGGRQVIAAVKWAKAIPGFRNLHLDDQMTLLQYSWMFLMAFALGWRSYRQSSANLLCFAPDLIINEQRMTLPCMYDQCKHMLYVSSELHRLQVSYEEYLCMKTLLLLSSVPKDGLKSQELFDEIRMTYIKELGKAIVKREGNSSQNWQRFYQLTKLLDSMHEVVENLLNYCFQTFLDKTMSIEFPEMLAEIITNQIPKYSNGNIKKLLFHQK
Assay: Inhibition of antagonist activity towards glucocorticoid receptor
Type: functional
pIC50: −log10 of the molar value.
result-type: pIC50

[[record]]
compound = "CC1=CC(C)(C)Nc2ccc3c(c21)COc1c(F)cc(C#N)cc1-3"
reported_result = 6.71

[[record]]
compound = "CC1=CC(C)(C)Nc2ccc3c(c21)COc1c(F)cc(Br)cc1-3"
reported_result = 5.66

[[record]]
compound = "CC1CC(C)(C)Nc2ccc3c(c21)COc1ccc([N+](=O)[O-])cc1-3 (stereo not given)"
reported_result = 5.73

[[record]]
compound = "CC1=CC(C)(C)Nc2ccc3c(c21)COc1ccc([N+](=O)[O-])cc1-3"
reported_result = 6.16

[[record]]
compound = "CC1=CC(C)(C)Nc2ccc3c(c21)COc1ccc(Br)cc1-3"
reported_result = 5.71


----------
Target: Progesterone receptor (Homo sapiens, UniProt P06401)
Sequence (P06401 whole entry): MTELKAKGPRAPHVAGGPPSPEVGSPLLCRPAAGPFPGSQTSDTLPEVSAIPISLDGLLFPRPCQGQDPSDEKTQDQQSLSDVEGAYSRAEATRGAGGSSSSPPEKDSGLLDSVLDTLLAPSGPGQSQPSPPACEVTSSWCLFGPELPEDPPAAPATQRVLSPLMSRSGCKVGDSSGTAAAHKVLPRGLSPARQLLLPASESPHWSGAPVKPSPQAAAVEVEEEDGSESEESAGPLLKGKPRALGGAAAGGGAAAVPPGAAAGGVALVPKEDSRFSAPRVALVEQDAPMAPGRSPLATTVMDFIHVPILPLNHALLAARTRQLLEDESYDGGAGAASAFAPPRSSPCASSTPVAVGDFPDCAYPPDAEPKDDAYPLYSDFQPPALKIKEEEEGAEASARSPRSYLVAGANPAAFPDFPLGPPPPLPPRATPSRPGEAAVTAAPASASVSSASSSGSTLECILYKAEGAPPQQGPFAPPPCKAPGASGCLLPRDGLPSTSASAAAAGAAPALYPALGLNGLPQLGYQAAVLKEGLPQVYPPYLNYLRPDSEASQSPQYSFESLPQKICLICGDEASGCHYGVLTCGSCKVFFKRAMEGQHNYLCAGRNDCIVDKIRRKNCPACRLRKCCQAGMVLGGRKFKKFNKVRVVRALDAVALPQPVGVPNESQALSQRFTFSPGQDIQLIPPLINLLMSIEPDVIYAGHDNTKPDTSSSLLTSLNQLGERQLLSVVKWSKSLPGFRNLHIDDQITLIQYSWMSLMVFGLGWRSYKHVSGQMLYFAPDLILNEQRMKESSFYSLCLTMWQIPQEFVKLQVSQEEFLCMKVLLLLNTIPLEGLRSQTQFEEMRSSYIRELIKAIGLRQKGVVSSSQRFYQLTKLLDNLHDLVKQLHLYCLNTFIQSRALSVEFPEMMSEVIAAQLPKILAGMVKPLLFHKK
Could you please mark y for values of IC50 below 400 nM and n for values at or above it?

[[record]]
compound = "CC1CC(C)(C)Nc2ccc3c(c21)COc1c(F)cc(F)cc1-3 (stereo not drawn)"
assigned_category = "y"

[[record]]
compound = "CC1=CC(C)(C)Nc2ccc3c(c21)COc1c(Cl)cccc1-3"
assigned_category = "n"

[[record]]
compound = "Cc1cc(F)cc2c1OCc1c-2ccc2c1C(C)CC(C)(C)N2 (stereo not drawn)"
assigned_category = "n"

[[record]]
compound = "CC1=CC(C)(C)Nc2ccc3c(c21)COc1c(F)cccc1-3"
assigned_category = "y"

[[record]]
compound = "CC1=CC(C)(C)Nc2ccc3c(c21)COc1ccc(-c2ccccc2)cc1-3"
assigned_category = "n"

[[record]]
compound = "CC1=CC(C)(C)Nc2ccc3c(c21)COc1c(F)cc(C#N)cc1-3"
assigned_category = "y"

[[record]]
compound = "CC1=CC(C)(C)Nc2ccc3c(c21)COc1ccc([N+](=O)[O-])cc1-3"
assigned_category = "y"

[[record]]
compound = "CC1CC(C)(C)Nc2ccc3c(c21)COc1ccc([N+](=O)[O-])cc1-3 (stereo not drawn)"
assigned_category = "y"

[[record]]
compound = "CC1=CC(C)(C)Nc2ccc3c(c21)COc1c(C)cc(Cl)cc1-3"
assigned_category = "y"

[[record]]
compound = "CC1CC(C)(C)Nc2ccc3c(c21)COc1c-3cc(F)cc1[N+](=O)[O-] (stereo not drawn)"
assigned_category = "n"

[[record]]
compound = "COc1ccc2c(c1)-c1ccc3c(c1CO2)C(C)=CC(C)(C)N3"
assigned_category = "y"

[[record]]
compound = "CC1=CC(C)(C)Nc2ccc3c(c21)COc1ccc(Br)cc1-3"
assigned_category = "n"

[[record]]
compound = "CC1=CC(C)(C)Nc2ccc3c(c21)COc1c(F)cc(Br)cc1-3"
assigned_category = "n"

